Reference for the values: PubChem BioAssay

Collected inhibition values appear next to each entry.
- assay_system: Pantothenate synthetase (Mycobacterium tuberculosis (strain ATCC 25618 / H37Rv)) (UniProt P9WIL5)
- Sequence (P9WIL5 whole entry, looked up): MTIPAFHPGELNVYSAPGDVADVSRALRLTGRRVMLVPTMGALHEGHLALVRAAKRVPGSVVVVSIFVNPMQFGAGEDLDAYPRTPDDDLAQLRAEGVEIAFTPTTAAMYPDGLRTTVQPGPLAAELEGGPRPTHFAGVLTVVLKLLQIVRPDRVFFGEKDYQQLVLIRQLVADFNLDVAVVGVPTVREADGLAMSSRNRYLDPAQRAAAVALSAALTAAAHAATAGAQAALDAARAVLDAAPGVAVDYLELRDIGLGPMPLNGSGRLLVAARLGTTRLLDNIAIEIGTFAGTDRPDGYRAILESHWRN
- procedure_details: Coupled enzyme confirmation of inhibitors against recombinant Mtb PanC (AID 375);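 note: 0% = full reaction with vehicle and 100% = no enzyme background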
- run_conditions: coupled enzyme assay; at 10 µM, active compounds read high
Give the number; % is assumed, so skip it.

Use these answered entries as a reference point.
[
  {
    "compound": "O=C1c2ccccc2NC2CCCCCN12 (stereo not drawn)",
    "inhibition / %": 0
  },
  {
    "compound": "COc1cccc(-n2nnnc2SCC(=O)NCc2ccco2)c1",
    "inhibition / %": 0
  },
  {
    "compound": "Cc1cc(C(F)F)n2nc(C(=O)Nc3ccc(S(=O)(=O)N4CCCCCC4)cc3)nc2n1",
    "inhibition / %": 1
  }
]

For Cc1cccc(-n2c(-c3ccco3)nc3ccccc3c2=O)n1 the compound record lists inhibition as 0

For CCCOc1ccc([C@@H]2C3CN(C(=O)OCC)CC=C3C(C#N)=C(N)C2(C#N)C#N)cc1OC (stereo partly drawn) the compound record lists inhibition as 1

For C[C@H]1OC[C@@H](C[N+](C)(C)C)O1 the compound record lists inhibition as 0

For O=C(CN(CCc1ccccc1)C(=O)CN1C(=O)COc2ccccc21)NCc1ccco1 the compound record lists inhibition as 10

For CC(=O)NCc1ccc(C(=O)CSc2nnc(-c3ccncc3)n2Cc2ccccc2)o1 the compound record lists inhibition as 16

For O=C1CCc2cc(S(=O)(=O)N3CCC(C(=O)Nc4nccs4)CC3)ccc2N1 the compound record lists inhibition as 4

For Cc1noc(C)c1C(=O)Nc1sc(C)c(C)c1C#N the compound record lists inhibition as 2

For O=C(CSc1ncc(-c2ccc(F)cc2)[nH]1)N1CCCCC1 the compound record lists inhibition as 0
